# Tested on: SaR1: Meticillin-Resistant Staphylococcus aureus without Associated Resistance
# TEST_DESCRIPTION: Antibiogram, MIC by the VITEK 2 system
# Type: cell-based
# REPORTED_CONDITIONS: SaR1; Cc CA-SFM 2011
READOUT_KIND: CA-SFM Interpretation

// below: answered compounds
CC(=O)O[C@H]1C[C@@]2(C)[C@@H](C[C@@H](O)[C@H]3[C@@]4(C)CC[C@@H](O)[C@@H](C)[C@@H]4CC[C@@]32C)/C1=C(\CCC=C(C)C)C(=O)O = Susceptible
CC[C@H]1OC(=O)[C@H](C)[C@@H](O[C@H]2C[C@@](C)(OC)[C@@H](O)[C@H](C)O2)[C@H](C)[C@@H](O[C@@H]2O[C@H](C)C[C@H](N(C)C)[C@H]2O)[C@](C)(O)C[C@@H](C)C(=O)[C@H](C)[C@@H](O)[C@]1(C)O = Susceptible
CC(=O)NC[C@H]1CN(c2ccc(N3CCOCC3)c(F)c2)C(=O)O1 = Susceptible
NC[C@H]1O[C@H](O[C@H]2[C@H](O)[C@@H](O[C@H]3O[C@H](CO)[C@@H](O)[C@H](N)[C@H]3O)[C@H](N)C[C@@H]2N)[C@H](N)C[C@@H]1O = Susceptible
CCC[C@@H]1C[C@@H](C(=O)N[C@@H]([C@H]2O[C@H](SC)[C@H](O)[C@@H](O)[C@H]2O)[C@@H](C)O)N(C)C1 = Susceptible
Cc1onc(-c2ccccc2)c1C(=O)N[C@@H]1C(=O)N2[C@@H]1SC(C)(C)[C@@H]2C(=O)O = Resistant
CC1(C)S[C@@H]2[C@H](NC(=O)Cc3ccccc3)C(=O)N2[C@H]1C(=O)O = Resistant
CN[C@H](CC(C)C)C(=O)N[C@H]1C(=O)N[C@@H](CC(N)=O)C(=O)N[C@H]2C(=O)N[C@H]3C(=O)N[C@H](C(=O)N[C@H](C(=O)O)c4cc(O)cc(O)c4-c4cc3ccc4O)[C@H](O)c3ccc(c(Cl)c3)Oc3cc2cc(c3O[C@@H]2O[C@H](CO)[C@@H](O)[C@H](O)[C@H]2O[C@H]2C[C@](C)(N)[C@H](O)[C@H](C)O2)Oc2ccc(cc2Cl)[C@H]1O = Susceptible

### Prompt API: value(readout= CA-SFM Interpretation, system= SaR1: Meticillin-Resistant Staphylococcus aureus without Associated Resistance, query= C[C@@H]1O[C@@H]1P(=O)(O)O )
### Response Susceptible

// provenance: patent US20140066365A1
